Test system: Streptococci
Assay: Minimum inhibitory concentration, microdilution broth method, streptococci
Format: cell-based
Details: S. pneumo GC 1894; Mueller-Hinton broth with 5% horse blood, 18-22 hours at 35° C.
measuredQuantity: MIC (µg/mL)
Note: unit µg/mL is implicit; provide only the numeric part.

Value of measured MIC for the entry COc1ccc(/C=C2\OC(=O)C(c3cc(Cl)cc(Cl)c3)=C2O)c2ccccc12 [Example 36] : 1

Input O=C1O/C(=C\c2ccc(Cl)cc2)C(O)=C1c1ccc(-c2ccccc2)cc1 [Example 139] . Output MIC: 1

Lab note: O=C1O/C(=C\c2cc(F)cc(C(F)(F)F)c2)C(O)=C1c1cccc(-c2ccccc2)c1 [Example 109] gave MIC of 0.25

molecule COc1ccccc1-c1ccc(/C=C2\OC(=O)C(c3cc(Cl)cc(Cl)c3)=C2O)cc1OC [Example 19] , MIC observed: 0.5

The molecule O=C1O/C(=C\c2ccc3ccccc3c2)C(O)=C1c1ccc(-c2ccccc2)cc1 [Example 103] showed MIC equal to 0.5

Summary for this molecule, COC(=O)c1ccc(C2=C(O)/C(=C/c3cccc4ccccc34)OC2=O)cc1 [Example 74] : MIC is 32

Entry under test: O=C1O/C(=C\c2cccc(-c3cc(Cl)cc(Cl)c3)c2)C(O)=C1c1cc(Cl)cc(Cl)c1 [Example 136] . Its MIC was 0.25

MIC recorded for this molecule, O=C1O/C(=C\c2ccc(Cl)cc2)C(O)=C1c1ccc2ccccc2c1 [Example 43] , is 1

The molecule O=C1O/C(=C\c2cccc(C(F)(F)F)c2Cl)C(O)=C1c1ccc(-c2ccccc2)c(F)c1 [Example 114] showed MIC equal to 0.25

COc1cc(/C=C2\OC(=O)C(c3cccc(Cl)c3)=C2O)ccc1-c1ccccc1Cl [Example 18] has a reported MIC of 0.5

Kindly note the recorded MIC for O=C1O/C(=C\c2ccccc2C(F)(F)F)C(O)=C1c1ccc(-c2ccccc2)c(F)c1 [Example 107] , which is 0.25

Per the record, CCCc1ccc(-c2ccc(C3=C(O)/C(=C/c4cccc(C(F)(F)F)c4)OC3=O)cc2)cc1 [Example 131] has MIC of 0.25

So for N#Cc1cccc(-c2ccc(/C=C3\OC(=O)C(c4ccccc4C#N)=C3O)cc2)c1 [Example 59] , the logged MIC turned out to be 32

// MIC value for Cc1cc(/C=C2\OC(=O)C(c3cc(Cl)cc(Cl)c3)=C2O)ccc1-c1ccccc1C(F)(F)F [Example 27] : 0.5
